Where these numbers come from: the Human Domainome abundance scans (Beltran et al. 2025)

B1: Myocardin, residues 363 to 406; numbered along this chain, Q8IZQ8 (parent)
chain: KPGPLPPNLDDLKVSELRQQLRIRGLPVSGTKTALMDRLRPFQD

# Variants of: B1
# test name: abundance fitness (aPCA) (normalised: wild type 0, dead -1); higher = more abundant; growth selection in yeast, the domain comes from the species named
# run conditions: Homo sapiens
abundance fitness of -0.05 or higher: MET. Under -0.05: NOT MET.

L39F: NOT MET
P41A: MET
L26G: NOT MET
Q19T: NOT MET

Query: State whether the measured abundance fitness reaches -0.05, counting equality as reaching it, for "T31C"
Response: NOT MET
